// data source = the supplement of paper PMC3334620

Reported PBM E-score values for a set of sequences
Biological target: Pdr3 (UniProt P33200)
Sequence: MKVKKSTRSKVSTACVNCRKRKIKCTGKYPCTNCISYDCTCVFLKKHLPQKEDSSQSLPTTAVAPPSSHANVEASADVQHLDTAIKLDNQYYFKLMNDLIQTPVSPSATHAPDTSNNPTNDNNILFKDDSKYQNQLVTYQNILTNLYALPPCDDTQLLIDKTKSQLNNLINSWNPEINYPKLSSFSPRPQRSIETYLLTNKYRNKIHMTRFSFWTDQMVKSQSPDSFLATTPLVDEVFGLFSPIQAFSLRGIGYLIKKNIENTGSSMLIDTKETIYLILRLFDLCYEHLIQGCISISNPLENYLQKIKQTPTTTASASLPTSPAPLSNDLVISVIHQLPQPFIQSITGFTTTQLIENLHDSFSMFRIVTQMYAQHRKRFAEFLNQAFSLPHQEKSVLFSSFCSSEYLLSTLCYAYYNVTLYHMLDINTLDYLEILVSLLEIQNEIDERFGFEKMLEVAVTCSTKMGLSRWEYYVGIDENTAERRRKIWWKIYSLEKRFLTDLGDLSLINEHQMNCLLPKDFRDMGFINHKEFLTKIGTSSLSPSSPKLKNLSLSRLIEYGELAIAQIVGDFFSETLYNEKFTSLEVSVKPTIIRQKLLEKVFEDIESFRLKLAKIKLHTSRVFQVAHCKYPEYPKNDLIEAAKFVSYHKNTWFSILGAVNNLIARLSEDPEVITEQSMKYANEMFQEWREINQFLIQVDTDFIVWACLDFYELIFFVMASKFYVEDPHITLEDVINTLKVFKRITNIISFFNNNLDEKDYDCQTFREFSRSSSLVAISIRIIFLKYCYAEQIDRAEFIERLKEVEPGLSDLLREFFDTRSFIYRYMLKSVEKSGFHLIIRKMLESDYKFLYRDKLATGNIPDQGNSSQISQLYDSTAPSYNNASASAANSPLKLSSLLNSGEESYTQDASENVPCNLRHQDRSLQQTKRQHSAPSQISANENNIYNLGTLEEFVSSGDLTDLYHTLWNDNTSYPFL
Assay: PBM E-score (8-mer binding enrichment) (E-score (-0.5 to 0.5)); higher = stronger / more preferred TF binding
Settings: protein concentration: 200 nM; construct: GST-full length
In all, about 33,000 sequences were measured (“E-score (-0.5 to 0.5)”: median about -0.035, highest 2% from about 0.35 on). This excerpt belongs to a sample that is enriched for the highest values.

Please review the entries below; each comes with its answer.
ACGCTCCG ... 0.315
CCGGTCGA ... 0.167
ATCATTCC ... 0.281
ATGGCACG ... 0.117
CGCGGTCA ... 0.307

Give the measured PBM E-score for TACTCGGA 0.336

Give the measured PBM E-score for CGGCACAA 0.121

Give the measured PBM E-score for TGGAATAA -0.00691

Give the measured PBM E-score for GTCCGGTA 0.181

Give the measured PBM E-score for CCGATCCG 0.371
